tested on: VchCAST RNA-guided transposition machinery (E. coli BL21(DE3) host, lacZ target); test: relative integration efficiency (T-LR orientation) vs wild-type transposon end (log2 (normalized fold change)); transposon end mutated: right end (5 bp flank + 75 bp right end); higher = more efficient transposition
Everything with relative integration efficiency (log2) lower than 0.5 is F; everything else, including exactly 0.5, is T.

API: above_or_equal(metric=relative integration efficiency (log2), cutoff=0.5) for item ACATTTGTTGATACAACCAGCAAATGATAATTACACCCATAAATTGATAATTATCACACCCATAAATTGATATTGCCTCTGATCATAGTCAGACCAACATTGCTACGACCCGTATTCGCACCGACAC
F

API: above_or_equal(metric=relative integration efficiency (log2), cutoff=0.5) for item ACATTGGTTGATACAACCATAAAATGATAATTACACCCATAAATTGATCATTATCACACCCAATTTAACTATAACGCTCTGATCATAGTCAGACCAACATTGCTACGACCCGTATTCGCACCGACAC
F

API: above_or_equal(metric=relative integration efficiency (log2), cutoff=0.5) for item ACATTTGTTGATACAACCATAAAATGATAATTACACCCATAAATGGATTATTATCACACCCAATTTAACTATAACGCTCTGATCATAGTCAGACCAACATTGCTACGACCCGTATTCGCACCGACAC
T

---

system: VchCAST RNA-guided transposition machinery (E. coli BL21(DE3) host, lacZ target); experiment: relative integration efficiency (T-RL orientation) vs wild-type transposon end (log2 (normalized fold change)); transposon end mutated: right end (5 bp flank + 75 bp right end); higher = more efficient transposition
endpoint name: relative integration efficiency (log2)

Recorded relative integration efficiency (log2), per entry:
ACATTTGTTAAAAAAACCATACGTTGATTTTACGAAACCATACGCTGAAATAATCACACCCATAAATTGATATTGCCTCTGATCATAGTCAGACCAACATTGCTACGACCCGTATTCGCACCGACAC    -5.94
ACATTTGTTGATACAACCATAAAATGATAATTAATAATTATTTATAATCAGCAACTTAACCACAAAACACCCATAAATTGATAATTAACAAAAGTGGGTATTTAACTATAACGTGTGAATCGAGTAT    -3.47

Each of the following entries comes with a recorded value; kindly state relative integration efficiency (log2) for each.
1. ACATTTGTTGATACAACCATAAAATGATAATTACCAAACGCCCGGTCGCCGGCGACACAAACGCCCGGTCGCGGTAAGAGGATCATAGTCAGACCAACATTGCTACGACCCGTATTCGCACCGACAC
2. ACATTTCTTGATACAACCATAAAATGATAATTACACCCATAAATGGATCATTATCACACCCAATTTAACTATAACGCTCTGATCATAGTCAGACCAACATTGCTACGACCCGTATTCGCACCGACAC
3. ACATTTCTCGATACAACCATAAAATGATAATTACACCCATAAATTGATCATTATCACACCCAATTTAACTATAACGCTCTGATCATAGTCAGACCAACATTGCTACGACCCGTATTCGCACCGACAC

1: -1.94; 2: -2.34; 3: -1.71

---

system: VchCAST RNA-guided transposition machinery (E. coli BL21(DE3) host, lacZ target); experiment: relative integration efficiency (T-RL orientation) vs wild-type transposon end (log2 (normalized fold change)); transposon end mutated: left end; higher = more efficient transposition
endpoint name: relative integration efficiency (log2)
Numbers only.

Each of the following entries comes with a recorded value; kindly state relative integration efficiency (log2) for each.
1. AATGTTGTTGATGCAACCATAAAGTGATATTTAATAATTCAACCATATATTGATATCTCATTTATAATCAGCAACTTAACCACAAAAACAAAACAACCATAAGTTGATATTTTTGTGAATCGAGTATTTCAGCAAAACTACTGCAGTAAGAA
2. AATGTTGTTGATGCAACCATAAAGTGATATTTAATAATTATTTCAACCATATATTGATATCTCACAAAACAACCATAAGTTGATATTTTTGTGAATCGAGTATTTCAGCAAAACTACTGCAGTAAGAAAGTTACTTCGTGGTATGGGAGGAT
3. AATGTTGTTGATGCAACCATAAAGTGATATTTAATAATTGGCAGTGAGCGCAACGCAATTCACAAAACAACCATATATTGATATCTCACAAAACAACCATAAGTTGATATTTTTGTGAATCGAGTATTTCAGCAAAACTACTGCAGTAAGAA
4. AATGTTGTTGATGCAACCATAAAGTGATATTTAATACAACCATAAAGTGATATTTAACTTAACCACACAACCATATATTGATATCTCACAAAACAACCATAAGTTGATATTTTTGTGAATCGAGTATTTCAGCAAAACTACTGCAGTAAGAA
5. AATGTTGTTGATGCAACCATAAAGTGAGCGGGCATAATTATTTATAATCAGCAACTTAACCACAAAACAACCATATATTGAGCGAGAACAAAACAACCATAAGTTGAGCGGGGTGTGAATCGAGTATTTCAGCAAAACTACTGCAGTAAGAA
6. AATGTTGTTGATGCAACCATAAAGTGATATTTAATAATTATTTATAATCAGCAACTTAACCACAAAATGTGAATCGAGTATTTCAGCAAAACTACTGCAGTAAGAATCAACCATATATTGATATCTCACAAAACAACCATAAGTTGATATTT
7. AATGTTGTTGATGCAACCATAAAGTGATATTTAATAATTATTTATAATCAGCAACTTAACCACAAAACAACCATATATTGATATCTCAACCCCACCAACGCCTGGTCGCGGGGGTGTCCGATCTGATTTCAGCAAAACTACTGCAGTAAGAA

1: -3.05; 2: -6.94; 3: -2.76; 4: -5.26; 5: -6.46; 6: -5.36; 7: -2.58

Each of the following entries comes with a recorded value; kindly state relative integration efficiency (log2) for each.
1. AATGTTGTTGATGCAACCAATTTCTGATATTTAATAATTATTTATAATCAGCAACTTAACCACAAAACAACCAATATATGATATCTCACAAAACAACCAATTCATGATATTTTTGTGAATCGAGTATTTCAGCAAAACTACTGCAGTAAGAA
2. AATGTTGTTGATGCAACCATATATTGATATCTCATAATTATTTATAATCAGCAACTTAACCACAAAACACCCATAAATTGATATTGCACAAAAGTTGGTATTCAACTATAAAATGTGAATCGAGTATTTCAGCAAAACTACTGCAGTAAGAA

-2.5
-4.07
